Origin of values: PubChem BioAssay (NCI)

tested on: SW-620 colon; test: NCI tumour cell line growth inhibition, 48 h
This listing pairs molecules with measured TGI.

- MOLECULE: "Cc1nnc2n1-c1ccccc1N(Cc1ccccc1)CC2"
  TGI: "> 100 µM"
- MOLECULE: "COC(=O)C1=C(C)NC(C)=C(C(=O)OC)C1c1cccc(N=O)c1"
  TGI: "17.7 µM"
- MOLECULE: "COc1cc2c3c(cc(Cl)nc3c1OC)C(=O)C(=O)N2"
  TGI: "> 55.5 µM"
- MOLECULE: "Cc1cc([N+](=O)[O-])c(C)c2c1[nH]c1ccc(/C(CCC3CCCC3)=N\\N)cc12"
  TGI: "33.5 µM"
- MOLECULE: "COC(=O)C1=C(OC(=O)c2ccc(Cl)cc2)C(C(=O)OC)[C@@]2(O)[C@@H](C(=O)OC)C(c3ccccc3C(F)(F)F)C[C@@H]1[C@@H]2C(=O)OC (stereo partly drawn)"
  TGI: "21.1 µM"
- MOLECULE: "Cc1ccc(C(=O)Nc2ccc(CN3CCN(C)CC3)c(C(F)(F)F)c2)cc1C#Cc1cnc(N)c2ccc(F)cc12"
  TGI: "0.638 µM"
- MOLECULE: "c1c(N2CCOCC2)ssc1=[N+]1CCOCC1"
  TGI: "> 100 µM"
- MOLECULE: "CC12CC3(C)CC(C)(C1)CC(N=[N+]=[N-])(C2)C3"
  TGI: "> 100 µM"
- MOLECULE: "O=C1N/N=C\\c2ccc(cc2)OCc2cccc(n2)COc2ccc(cc2)/C=N\\NC1=O"
  TGI: "> 25 µM"
- MOLECULE: "CCOC(=O)c1c(NC(=O)c2ccc(C(C)C)cc2)sc2c(CN(C)C)c(O)ccc12"
  TGI: "3.41 µM"
- MOLECULE: "COc1ccc(-n2nnc3c(sc4ccccc43)c2=O)cc1"
  TGI: "> 100 µM"
- MOLECULE: "Cc1nc(SCC(N)=O)c2sc(=S)n(-c3ccccc3)c2n1"
  TGI: "> 10 µM"
- MOLECULE: "CCc1nc(N)nc(N)c1-c1ccc([N+](=O)[O-])c(NCc2ccccc2)c1"
  TGI: "42.9 µM"
- MOLECULE: "Nc1cc(N)c2nc(-c3ccccc3)c(Oc3ccc(F)cc3)nc2c1"
  TGI: "50.1 µM"
- MOLECULE: "CCCO/N=[N+](\\[O-])N(CC)CC"
  TGI: "> 100 µM"
- MOLECULE: "COc1cc2[nH]c(=O)c3cc(-c4ccccc4)cc4c(Cl)nc(c1OC)c2c43"
  TGI: "> 66.1 µM"
- MOLECULE: "CC1(C)N=C(N)N=C(N)N1c1ccc(CCc2ccccc2)c(Cl)c1"
  TGI: "13.8 µM"
- MOLECULE: "COc1cc(OC)cc(Oc2nc3cc(F)c(F)cc3nc2-c2ccccc2)c1"
  TGI: "> 100 µM"
- MOLECULE: "Clc1cc(C(c2cc(Cl)sc2Cl)c2cc(Cl)sc2Cl)c(Cl)s1"
  TGI: "> 100 µM"
- MOLECULE: "O=C1c2cccnc2S(=O)(=O)N1c1ccc([N+](=O)[O-])cc1"
  TGI: "> 100 µM"
- MOLECULE: "CCOC(=O)Cn1nnc2cc(Nc3c(C)[n+]([O-])c4cc(F)c(OCC)cc4[n+]3[O-])ccc21"
  TGI: "> 100 µM"
- MOLECULE: "C#C[C@]1(O)CC[C@H]2[C@@H]3CC=C4c5nc(Nc6ccccn6)sc5CC[C@]4(C)[C@H]3CC[C@@]21C"
  TGI: "2.91 µM"
- MOLECULE: "COC(=O)C1=CCON(c2ccccc2)C1c1ccccc1 (stereo not drawn)"
  TGI: "> 100 µM"
- MOLECULE: "CC(=O)N(CCN)CCN"
  TGI: "> 10 µM"
- MOLECULE: "Cc1c(C)c2cc3c(=O)ccoc3c(C)c2oc1=O"
  TGI: "> 100 µM"
- MOLECULE: "CCOc1ccc(NCC2CC/C(=C\\C=C\\c3ccccc3)C2=O)cc1 (stereo not drawn)"
  TGI: "21.3 µM"
- MOLECULE: "COc1cccc(N2C(=O)CS(=O)(=O)C2c2cccc(Oc3ccccc3)c2)c1 (stereo not drawn)"
  TGI: "> 100 µM"
- MOLECULE: "N=C(N)SCc1cn2ccccc2n1"
  TGI: "> 100 µM"
